Exercise: for every item that follows, state its recorded protein stability index.
B1: PTPN9 (parent)
chain: TQHLPRECLPENLGGYVKIDLATW

# Variants of: B1
# assay-procedure: protein stability index of a GFP-peptide fusion (GPS, HEK-293T) (PSI 1-6); higher = more stable;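 note: lentivirally expressed fusions sorted by FACS into six bins by GFP to DsRed ratio, PSI derived from sequencing read proportions per bin multiplied by bin number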
# measurement-conditions: c terminus: a fixed tail appended
Give bare numbers.

Illustrative cases are given below, each with its answer.
In [3]: df
Out[3]:
   variant_key  recorded_value
0         P10D            1.88
1         I19E            3.58
2         L13H            2.21
3          T1C            1.51
4         L21T            2.27
5         I19M            2.79

For each of the variants below, state protein stability index.
1. C8S
2. T23E
3. L21C
4. N12M
5. L21P
6. W24S
7. A22E

[2.04, 2.73, 2.06, 1.96, 2.78, 3.06, 2.35]
